- Test system: J774.A1
- protocol.details: Inhibition of iNOS expression in LPS-stimulated mouse J774.A1 cells at 12.5 to 50 uM measured after […] by flow cytometry analysis relative to control
- Type: functional, cell-based
- settings: dose 12.5-50 µM
Calls of active or inactive are those of the source. The rule behind the calls is not given here.

{"molecule": "Cc1cc2c(cc1O)[C@@]13CCC(=O)C(C)(C)[C@@H]1C[C@@H]2OC3", "target.or.system": "J774.A1", "Activity": "Active"}
{"molecule": "CC(CO)C1=C(O)C(=O)c2c(ccc3c2[C@H](O)CCC3(C)C)C1=O (stereo not given in full)", "target.or.system": "J774.A1", "Activity": "Active"}
{"molecule": "CC(C)c1cc2ccc3c(c2c(O)c1O)C=CC(=O)C3(C)C", "target.or.system": "J774.A1", "Activity": "Active"}
{"molecule": "CC1=C[C@]2(O)CC[C@H]3C(C)(C)CCC[C@@]3(O)C2=CC1=O", "target.or.system": "J774.A1", "Activity": "Active"}
{"molecule": "Cc1cc2c(cc1O)C[C@]1(O)CCCC(C)(C)[C@@H]1CC2", "target.or.system": "J774.A1", "Activity": "Active"}
